- experimental-protocol: Calculated glomerular sieving coefficients (GSCcalc) from MWapp,norm.
- experimental-context: from MWapp,norm. via sigmoidal fit of MW vs GSC of 12 human plasma proteins
- Description: Therefore, when comparing the MWapp,norm. of different radioligands, not only their relative difference but also the absolute values of MWapp,norm. are of importance. […] These GSCcalc determined for all the PSMA radioligands (Table 2, Figure 5) inherently account for the exponential nature of the relationship between their albumin-mediated MWapp,norm. and MW-dependent GF and could, therefore, be a useful parameter to estimate differences in blood clearance by means of GF. […]
Recorded GSCcalc (calculated glomerular sieving coefficient) values for a group of molecules are listed next.
Give your answer as a number; write no unit.

{"smiles-notation": "CC(C)(C)[Si](F)(c1ccc(C(=O)NC[C@H](NC(=O)CC[C@H](C(=O)O)N2CCN(CC(=O)[O-])CCN(CC(=O)[O-])CCN(CC(=O)[O-])CC2)C(=O)N[C@H](CCCCNC(=O)CCC(=O)NCCC[C@@H](NC(=O)CC[C@H](NC(=O)N[C@@H](CCC(=O)O)C(=O)O)C(=O)O)C(=O)O)C(=O)O)cc1)C(C)(C)C.[177Lu+3]", "numeric-readout": 0.344}
{"smiles-notation": "CC(C)(C)[Si](F)(c1ccc(C(=O)NC[C@H](NC(=O)CN2CCN(CC(=O)[O-])CCN(CC(=O)[O-])CCN(CC(=O)[O-])CC2)C(=O)N[C@H](CCCCNC(=O)CCC(=O)NCCC[C@@H](NC(=O)CC[C@H](NC(=O)N[C@@H](CCC(=O)O)C(=O)O)C(=O)O)C(=O)O)C(=O)O)cc1)C(C)(C)C.[177Lu+3]", "numeric-readout": 0.846}
{"smiles-notation": "CC(C)(C)[Si](F)(c1ccc(C(=O)NC[C@@H](NC(=O)CC[C@@H](C(=O)O)N2CCN(CC(=O)[O-])CCN(CC(=O)[O-])CCN(CC(=O)[O-])CC2)C(=O)N[C@H](CCCCNC(=O)CCC(=O)NCCC[C@@H](NC(=O)CC[C@H](NC(=O)N[C@@H](CCC(=O)O)C(=O)O)C(=O)O)C(=O)O)C(=O)O)cc1)C(C)(C)C.[177Lu+3]", "numeric-readout": 0.408}

We now examine a further molecule.
INPUT: Field request: GSCcalc (calculated glomerular sieving coefficient) | item: CC(C)(C)[Si](F)(c1ccc(C(=O)NC[C@@H](NC(=O)CC[C@H](C(=O)O)N2CCN(CC(=O)[O-])CCN(CC(=O)[O-])CCN(CC(=O)[O-])CC2)C(=O)N[C@H](CCCCNC(=O)CCC(=O)NCCC[C@@H](NC(=O)CC[C@H](NC(=O)N[C@@H](CCC(=O)O)C(=O)O)C(=O)O)C(=O)O)C(=O)O)cc1)C(C)(C)C.[177Lu+3]
OUTPUT: 0.655

* * *

- target-desc: human serum albumin (HSA) (Homo sapiens, UniProt P02768)
- Construct: purchased Biowest, Nuaillé, France
- Sequence (P02768 25-609): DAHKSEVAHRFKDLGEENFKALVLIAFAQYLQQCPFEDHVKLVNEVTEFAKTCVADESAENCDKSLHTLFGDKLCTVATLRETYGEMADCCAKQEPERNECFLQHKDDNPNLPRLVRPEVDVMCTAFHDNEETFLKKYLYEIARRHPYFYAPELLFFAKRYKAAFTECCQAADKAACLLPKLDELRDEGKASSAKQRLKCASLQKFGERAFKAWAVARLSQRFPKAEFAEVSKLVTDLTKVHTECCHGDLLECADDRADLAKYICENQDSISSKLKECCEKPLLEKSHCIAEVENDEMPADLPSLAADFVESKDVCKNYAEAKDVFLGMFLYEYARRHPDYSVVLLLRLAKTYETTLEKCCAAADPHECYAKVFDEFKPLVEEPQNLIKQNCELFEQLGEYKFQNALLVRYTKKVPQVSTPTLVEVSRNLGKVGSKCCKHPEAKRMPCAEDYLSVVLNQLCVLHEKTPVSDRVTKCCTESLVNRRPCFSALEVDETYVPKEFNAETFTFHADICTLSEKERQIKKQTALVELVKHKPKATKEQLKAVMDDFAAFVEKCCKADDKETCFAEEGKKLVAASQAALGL
- experimental-protocol: Albumin-mediated size exclusion chromatography (AMSEC)
- Format: in vitro ADME
- experimental-context: from tR,AMSEC by column calibration; 700 µM HSA in PBS pH 7.4
assay-metric: MWapp,raw (raw apparent molecular weight)

Below are worked cases with known answers.
{"smiles-notation": "CC(C)(C)[Si](F)(c1ccc(C(=O)NC[C@@H](NC(=O)CC[C@H](C(=O)O)N2CCN(CC(=O)[O-])CCN(CC(=O)[O-])CCN(CC(=O)[O-])CC2)C(=O)N[C@H](CCCCNC(=O)CCC(=O)NCCC[C@@H](NC(=O)CC[C@H](NC(=O)N[C@@H](CCC(=O)O)C(=O)O)C(=O)O)C(=O)O)C(=O)O)cc1)C(C)(C)C.[177Lu+3]", "result": "26.5 kDa"}
{"smiles-notation": "CC(C)(C)[Si](F)(c1ccc(C(=O)NC[C@H](NC(=O)CN2CCN(CC(=O)[O-])CCN(CC(=O)[O-])CCN(CC(=O)[O-])CC2)C(=O)N[C@H](CCCCNC(=O)CCC(=O)NCCC[C@@H](NC(=O)CC[C@H](NC(=O)N[C@@H](CCC(=O)O)C(=O)O)C(=O)O)C(=O)O)C(=O)O)cc1)C(C)(C)C.[177Lu+3]", "result": "22.0 kDa"}

We now examine a further molecule.
INPUT: Form entry - test system: human serum albumin (HSA) (Homo sapiens, UniProt P02768); read-out: MWapp,raw (raw apparent molecular weight); molecule: CC(C)(C)[Si](F)(c1ccc(C(=O)NC[C@H](NC(=O)CC[C@@H](C(=O)O)N2CCN(CC(=O)[O-])CCN(CC(=O)[O-])CCN(CC(=O)[O-])CC2)C(=O)N[C@H](CCCCNC(=O)CCC(=O)NCCC[C@@H](NC(=O)CC[C@H](NC(=O)N[C@@H](CCC(=O)O)C(=O)O)C(=O)O)C(=O)O)C(=O)O)cc1)C(C)(C)C.[177Lu+3]
OUTPUT: 36.0 kDa

* * *

Recorded tR,norm. (normalized retention time) values for a group of molecules are listed next.
- target-desc: human serum albumin (HSA) (Homo sapiens, UniProt P02768)
- Construct: purchased Biowest, Nuaillé, France
- experimental-protocol: Albumin-mediated size exclusion chromatography (AMSEC)
- Type: in vitro ADME
- experimental-context: normalized with tR,blank, tR,HSA and tR,acetone; Equation (5)
Expressed in min, but write only the number.

{"molecule": "CC(C)(C)[Si](F)(c1ccc(C(=O)NC[C@H](NC(=O)CC[C@@H](C(=O)O)N2CCN(CC(=O)[O-])CCN(CC(=O)[O-])CCN(CC(=O)[O-])CC2)C(=O)N[C@H](CCCCNC(=O)CCC(=O)NCCC[C@@H](NC(=O)CC[C@H](NC(=O)N[C@@H](CCC(=O)O)C(=O)O)C(=O)O)C(=O)O)C(=O)O)cc1)C(C)(C)C.[177Lu+3]", "unit": "min", "numeric-readout": 15.316}
{"molecule": "O=C(O)CC[C@H](NC(=O)N[C@@H](CCCCNC(=O)[C@H](Cc1ccc2ccccc2c1)NC(=O)[C@H]1CC[C@H](CNC(=O)CN2CCN(CC(=O)O)CCN(CC(=O)O)CCN(CC(=O)O)CC2)CC1)C(=O)O)C(=O)O (177Lu complex, metal not drawn) [PSMA-617, reference compound]", "unit": "min", "numeric-readout": 18.988}

INPUT: Field request: tR,norm. (normalized retention time) | item: O=C(O)CC[C@H](NC(=O)N[C@@H](CCCCNC(=O)CCCCCCC(=O)NCCCC[C@@H](NC(=O)[C@@H](Cc1ccccc1)NC(=O)[C@@H](Cc1ccc(O)c(I)c1)NC(=O)CCC(C(=O)O)N1CCN(CC(=O)O)CCN(CC(=O)O)CCN(CC(=O)O)CC1)C(=O)O)C(=O)O)C(=O)O (stereo partly drawn) (177Lu complex, metal not drawn) [PSMA-I&T, reference compound]
OUTPUT: 24.792

* * *

- target-desc: human serum albumin (HSA) (Homo sapiens, UniProt P02768)
- Construct: purchased Biowest, Nuaillé, France
- experimental-protocol: Albumin-mediated size exclusion chromatography (AMSEC)
- Format: in vitro ADME
- experimental-context: from tR,norm. by column calibration
assay-metric: MWapp,norm. (normalized apparent molecular weight)
Quick note: unit goes after the number.

INPUT: Field request: MWapp,norm. (normalized apparent molecular weight) | item: CC(C)(C)[Si](F)(c1ccc(C(=O)NC[C@@H](NC(=O)CC[C@H](C(=O)O)N2CCN(CC(=O)[O-])CCN(CC(=O)[O-])CCN(CC(=O)[O-])CC2)C(=O)N[C@H](CCCCNC(=O)CCC(=O)NCCC[C@@H](NC(=O)CC[C@H](NC(=O)N[C@@H](CCC(=O)O)C(=O)O)C(=O)O)C(=O)O)C(=O)O)cc1)C(C)(C)C.[177Lu+3] [rhPSMA-7.1]
OUTPUT: 17.1 kDa

* * *

- target-desc: human serum albumin (HSA) (Homo sapiens, UniProt P02768)
- Construct: purchased Biowest, Nuaillé, France
- experimental-protocol: Albumin-mediated size exclusion chromatography (AMSEC)
- Assay type: in vitro ADME
- experimental-context: normalized with tR,blank, tR,HSA and tR,acetone; Equation (5)
assay-metric: tR,norm. (normalized retention time) (min)
Expressed in min, but write only the number.

{"smiles-notation": "CC(C)(C)[Si](F)(c1ccc(C(=O)NC[C@@H](NC(=O)CC[C@H](C(=O)O)N2CCN(CC(=O)[O-])CCN(CC(=O)[O-])CCN(CC(=O)[O-])CC2)C(=O)N[C@H](CCCCNC(=O)CCC(=O)NCCC[C@@H](NC(=O)CC[C@H](NC(=O)N[C@@H](CCC(=O)O)C(=O)O)C(=O)O)C(=O)O)C(=O)O)cc1)C(C)(C)C.[177Lu+3]", "unit": "min", "tR,norm. (normalized retention time)": 16.824}
{"smiles-notation": "CC(C)(C)[Si](F)(c1ccc(C(=O)NC[C@@H](NC(=O)CN2CCN(CC(=O)[O-])CCN(CC(=O)[O-])CCN(CC(=O)[O-])CC2)C(=O)N[C@H](CCCCNC(=O)CCC(=O)NCCC[C@@H](NC(=O)CC[C@H](NC(=O)N[C@@H](CCC(=O)O)C(=O)O)C(=O)O)C(=O)O)C(=O)O)cc1)C(C)(C)C.[177Lu+3]", "unit": "min", "tR,norm. (normalized retention time)": 16.789}

We now examine a further compound.
INPUT: Form entry - test system: human serum albumin (HSA) (Homo sapiens, UniProt P02768); read-out: tR,norm. (normalized retention time); compound: CC(C)(C)[Si](F)(c1ccc(C(=O)NC[C@H](NC(=O)CC[C@H](C(=O)O)N2CCN(CC(=O)[O-])CCN(CC(=O)[O-])CCN(CC(=O)[O-])CC2)C(=O)N[C@H](CCCCNC(=O)CCC(=O)NCCC[C@@H](NC(=O)CC[C@H](NC(=O)N[C@@H](CCC(=O)O)C(=O)O)C(=O)O)C(=O)O)C(=O)O)cc1)C(C)(C)C.[177Lu+3]
OUTPUT: 15.962
